The reported measurements were obtained from patent US20250382305A1.

Listed compounds paired with reported pIC50
- Tested on: Total ATXN3 (tATXN3) protein
- Test Name: Endogenous Total ATXN3 (tATXN3) Protein Assay (MSD immunoassay of cell lysates)
- Format: cell-based
- Test Parameters: average IC50, total ATXN3 protein in cell lysate after 48 h with compound (Table 1)
pIC50: −log10 of the molar value.

Recorded pIC50, per entry:
N[C@H]1CCCO[C@@H]1c1sc2c(NCc3ccco3)cc(Cl)nc2c1Br: ≥ 7.52
N[C@H]1CC=C[C@@H](O)[C@@H]1c1sc2c(NCc3cccs3)cc(Cl)nc2c1Cl: 6.52 to 7.52

# compound `N[C@H]1CC=CC[C@@H]1c1sc2c(NCc3cccs3)cc(Cl)nc2c1Cl` ; its pIC50 = ≥ 7.52

Just so you know, measured pIC50 for `N[C@H]1CC=CC[C@@H]1c1sc2c(NCc3cccs3)cc(Cl)nc2c1C#CC[C@@H](O)CO` came out at ≥ 7.52

What the record says about `N[C@@H]1CC=CC[C@H]1c1sc2c(NCc3ccncc3)cc(Cl)nc2c1Cl` : pIC50 is 6.52 to 7.52

So for `N[C@H]1CCCO[C@@H]1c1sc2c(NCc3ccccc3)cc(Cl)nc2c1Cl` , the logged pIC50 turned out to be 6.52 to 7.52

----------
- System: Total ATXN3 (tATXN3) protein
- Test Name: Endogenous Total ATXN3 (tATXN3) Protein Assay (MSD immunoassay of cell lysates)
- Assay type: cell-based
- Test Parameters: average IC50, total ATXN3 protein in cell lysate after 48 h with compound (Table 1)
IC50 listing for selected compounds.

Solved cases below.
N[C@H]1CCCO[C@@H]1c1c(Cl)c2nc(Cl)nc(NCc3ccco3)c2n1C(F)F [Compound 271]: 30 to 300 nM
N[C@@H]1CCCO[C@H]1c1c(Br)c2nc(Cl)cc(NCc3ccco3)c2n1C(F)F [Compound 426]: 300 to 1000 nM
N[C@H]1CCCC[C@H]1c1cc2nc(Cl)cc(NCc3cccs3)c2s1 [Compound 22]: 300 to 1000 nM
N[C@H]1CC=CC[C@@H]1c1c(I)c2nc(Cl)cc(NCc3ccccc3)c2n1C(F)F [Compound 352]: 30 to 300 nM
N[C@H]1CCCCCC[C@@H]1c1sc2c(NCc3cccs3)cc(Cl)nc2c1I [Compound 122]: > 1000 nM

Query N[C@@H]1COCC[C@H]1c1sc2c(NCc3cccs3)cc(Cl)nc2c1Cl.N[C@H]1COCC[C@@H]1c1sc2c(NCc3cccs3)cc(Cl)nc2c1Cl (mixture of isomers) [Compound 272] yields IC50 of 30 to 300 nM

The compound N[C@@H]1CC=CC[C@H]1c1sc2c(NCc3cccs3)nc(Cl)nc2c1Cl.N[C@H]1CC=CC[C@@H]1c1sc2c(NCc3cccs3)nc(Cl)nc2c1Cl (mixture of isomers) [Compound 397] showed IC50 equal to 300 to 1000 nM

Reported IC50 of N[C@H]1CCCO[C@@H]1c1c(Br)c2nc(Cl)nc(NCc3cccs3)c2n1C(F)F [Compound 248] : 30 to 300 nM

Query N[C@H]1CCCO[C@@H]1c1sc2c(NCc3ccco3)nc(Cl)nc2c1Br [Compound 143] yields IC50 of ≤ 30 nM

----------
- Test system: Total ATXN3 (tATXN3) protein
- Test Name: Endogenous Total ATXN3 (tATXN3) Protein Assay (MSD immunoassay of cell lysates)
- Format: cell-based
- Test Parameters: average IC50, total ATXN3 protein in cell lysate after 48 h with compound (Table 1)
Readout: IC50

Reference set, count: 5
Cc1c([C@H]2CC=C(C(=O)N(C)C)C[C@@H]2N)sc2c(NCc3cccs3)cc(Cl)nc12: 30 to 300 nM
C#Cc1c([C@@H]2CCCC[C@H]2N)sc2c(NCc3ccccc3F)cc(Cl)nc12: 30 to 300 nM
C#Cc1c([C@H]2CCCC[C@@H]2N)sc2c(NCc3ccco3)cc(Cl)nc12: 30 to 300 nM
CC#CCNc1cc(Cl)nc2c(Cl)c([C@H]3CCCC[C@@H]3N)sc12: 30 to 300 nM
N[C@H]1CCCCCC[C@@H]1c1sc2c(NCc3cccs3)cc(Cl)nc2c1Br: 30 to 300 nM

Just so you know, measured IC50 for `N[C@@H]1CC=CC[C@H]1c1sc2c(NCc3ccncc3)cc(Cl)nc2c1Br` came out at 30 to 300 nM

So for `Cc1c([C@H]2CC=C(C(=O)N3CCOCC3)C[C@@H]2N)sc2c(NCc3cccs3)cc(Cl)nc12` , the logged IC50 turned out to be 30 to 300 nM

Record `N[C@@H]1CCCCC[C@H]1c1sc2c(NCc3cccs3)cc(Cl)nc2c1-c1ccccc1` , field IC50: > 1000 nM

# IC50 (compound: `CC#CCNc1cc(Cl)nc2c(Br)c([C@H]3CC(C)=C(C)C[C@@H]3N)sc12` ) is 30 to 300 nM

Kindly note the recorded IC50 for `Cc1c([C@H]2CC=CC[C@@H]2N)sc2c(NCc3ccco3)cc(Cl)nc12` , which is ≤ 30 nM

Value of IC50 reported for the compound `N[C@@H]1CC=CC[C@H]1c1sc2c(NCc3cccs3)nc(Cl)nc2c1Br` is 30 to 300 nM

Query `N[C@@H]1CCCCC[C@H]1c1cc2nc(Cl)cc(NCc3cccs3)c2s1` yields IC50 of > 1000 nM

Value of measured IC50 for the entry `CN[C@H]1CC=CC[C@@H]1c1sc2c(NCc3cccs3)cc(Cl)nc2c1C#CCCO` : 30 to 300 nM

// `N[C@H]1CCCO[C@@H]1c1c(Cl)c2nc(Cl)nc(NCc3cccs3)c2n1C(F)F` : IC50 value = 30 to 300 nM

For this compound ( `N[C@@H]1CCCC[C@H]1c1sc2c(NCc3ccccc3)nc(Cl)nc2c1Br` ), measured IC50 is > 1000 nM

Value of IC50 reported for the compound `N[C@H]1CC=CC[C@@H]1c1sc2c(NCc3cccs3)nc(Cl)nc2c1I` is ≤ 30 nM
